# System: RXF 393 renal
# measurement protocol: NCI-60 one-dose screen, 48 h
# condition context: 10 µM unless noted
Compounds without any hit were thinned out: in the full panel of roughly 83,000, 20% have a hit. Active and inactive are the calls of the source. Rule for the calls: active = growth percent below 10; inactive = the rest.
// one of active, inactive, no free text

## Task Write down the call the test reported for this compound. Item: `Clc1ccc2nn3c4ccccc4c(OCCN4CCOCC4)nc3c2c1`
## Result inactive

## Task Status in this test for `c1ccc(-c2ccc3c(c2)C2(CCNCC2)CN3)cc1` ?
## Result inactive

## Task Hi team, can someone confirm the assay call for `CN(C)/C(N)=N/N=C(\c1ccccc1)c1ccccn1` ?
## Result inactive

## Task Tell me the recorded outcome of this test for `COc1ccc(Cl)cc1Nc1nc(C(F)(F)F)ccc1C(=O)N/N=C/c1ccc([N+](=O)[O-])cc1` .
## Result inactive

## Task Kindly provide the recorded test outcome for the following compound: `Cn1c(C#N)ccc1-c1ccc(F)c(NC(=O)c2ccc(F)cc2)c1`
## Result inactive

## Task # lookup: test call for `CN1C(=O)/C(=C/c2ccc(C(=O)Nc3ncc(Cc4cccc(C(F)(F)F)c4)s3)cc2)SC1=S`
## Result inactive

## Task // return assay outcome for `CCCCCCCCCCCCCCCCCCOc1ccccc1CC(=O)NCC[N+](C)(C)C`
## Result active

## Task Which outcome was assigned to `CN(C)CCn1c(=O)c2ccccc2n2nc3ccccc3c12` in this test?
## Result inactive

## Task Which result was noted for this compound in the test: `Nc1c(C(=O)Nc2cccc3ncccc23)sc2nc3c(cc12)CN(Cc1ccccc1)CC3`
## Result inactive

## Task Test call for this compound, please: `COC(=O)c1c2c(c(C)[n+]([O-])c1C)C(=O)C(NCc1ccccc1)=CC2=O`
## Result active
